target_desc: human organic cation transporter 3 (hOCT3) (Homo sapiens, UniProt O75751)
Construct: expressed in transfected cells; host or cells: HEK293
Sequence (O75751 whole entry): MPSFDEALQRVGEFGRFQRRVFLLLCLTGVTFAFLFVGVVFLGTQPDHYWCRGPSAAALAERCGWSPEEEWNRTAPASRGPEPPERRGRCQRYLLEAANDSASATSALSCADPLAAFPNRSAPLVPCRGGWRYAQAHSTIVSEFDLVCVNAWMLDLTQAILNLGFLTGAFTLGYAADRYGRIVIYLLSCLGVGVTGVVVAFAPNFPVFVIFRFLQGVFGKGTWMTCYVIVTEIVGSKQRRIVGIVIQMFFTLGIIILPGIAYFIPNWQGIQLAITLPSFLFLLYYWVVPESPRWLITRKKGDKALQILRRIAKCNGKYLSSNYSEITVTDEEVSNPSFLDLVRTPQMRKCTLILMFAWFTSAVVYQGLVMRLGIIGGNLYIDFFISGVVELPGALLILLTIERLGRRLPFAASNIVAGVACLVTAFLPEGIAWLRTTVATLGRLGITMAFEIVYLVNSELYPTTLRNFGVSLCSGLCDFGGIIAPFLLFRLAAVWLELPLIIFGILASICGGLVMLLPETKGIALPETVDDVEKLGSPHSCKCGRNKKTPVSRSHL
experimental_protocol: Histamine incorporation experiment in HEK293 cells expressing hOCT3 (OCT3 inhibition activity)
Assay type: cell-based
setup_conditions: HEK293; Compound Concentration 10 μM; 100% minus histamine incorporation rate
measured_parameter: inhibition at 10 µM (%)

# count of solved cases: 4
> print(dat)
                                   compound  value.unit  value.observed
1  Cc1nc(CCSCc2ccnc(N=C(N)N)c2)[nH]c(=O)c1CCc1ccccc1 [SR-2219]           %            48.5
2  NC(N)=Nc1nc(CCCC/C(N)=N/S(=O)(=O)C(F)(F)F)cs1 [SR-2065]           %            27.1
3    NC(N)=Nc1nc(CSCCNC(=O)CO)cs1 [SR-2045]           %            43.4
4  NC(N)=Nc1cccc(CSCC/C(N)=N/S(=O)(=O)C(F)(F)F)n1 [SR-2022]           %              50

I = NC(N)=Nc1nc(CSCCC(N)=NS(N)(=O)=O)cs1 [FAMOTIDINE, famotidine, reference compound]
II = NC(N)=Nc1cc(CSCC/C(N)=N/S(=O)(=O)C(F)(F)F)ccn1 [SR-2023]
Q: For the pair I and II , which entry has the numerically smaller recorded inhibition at 10 µM? # respond with the chosen item's label
A: I

// data source = patent US9745274B2
